All figures here come from patent US10562891B2.

# pIC50 values compiled below
- STUDY SYSTEM: catalytic domain of human PARP14 (Homo sapiens (Human))
- Sequence (Q460N5 1611-1801): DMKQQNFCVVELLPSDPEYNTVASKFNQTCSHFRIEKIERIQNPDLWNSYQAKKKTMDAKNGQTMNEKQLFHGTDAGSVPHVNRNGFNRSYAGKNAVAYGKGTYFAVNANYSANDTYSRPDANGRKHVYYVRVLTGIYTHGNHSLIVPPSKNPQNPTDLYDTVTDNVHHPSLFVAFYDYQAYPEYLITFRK
- ASSAY PROCEDURE: Enzymatic assay for inhibition of PARP14 (DELFIA, auto-modification with biotin-NAD)
- CONDITION LABEL: auto-modification of PARP14 by biotin-NAD, 50 nM PARP14, 3 μM biotin-NAD
pIC50: −log10 of the molar value.

Reference set, count: 3
Prompt line: Need pIC50 of CN1CC[C@H](COc2cc(F)c3c(=O)[nH]c(CS[C@H]4CC[C@H](O)CC4)nc3c2)[C@@H](F)C1 (relative stereo) , thanks.
Response line: > 6.00

Prompt line: Try O=c1[nH]c(CSC2CCOCC2)nc2cc(NCc3ccccc3)ccc12 next.
Response line: > 6.00

Prompt line: Next: O=c1[nH]c(CSC2CCOCC2)nc2cc(NCc3ccccn3)ccc12
Response line: 5.00 to 6.00

More entries:
Prompt line: What value of measured pIC50 is listed for O=c1[nH]c(CSC2CCOCC2)nc2cc(NC3CCCC3)cc(F)c12 ?
Response line: > 6.00
